IC95 values for the compounds below.
Tested on: Human immunodeficiency virus
Test: Antiviral activity against 4X HIV strain
Type: functional
Conditions: Human immunodeficiency virus 1, 4X; read-out: CIC95
Hi! Could you send only the number? It should be in µM, unit omitted.

Consider the worked cases shown below.
query: Endpoint output: IC95 of "Cc1ccncc1-c1ccc(C[C@H](C[C@H](O)CN2CCN(C(C)(C)c3ncc(-c4ccc(Cl)cc4)s3)C[C@H]2C(=O)NCC(F)(F)F)C(=O)N[C@H]2c3ccccc3OC[C@H]2O)o1" . Value?
result: 0.0313

query: Which measured IC95 value corresponds to "Cc1ccncc1-c1ccc(C[C@H](C[C@H](O)CN2CCN(Cc3ccc(-c4ccc(Cl)cc4)o3)C[C@H]2C(=O)NCC(F)(F)F)C(=O)N[C@H]2c3ccccc3OC[C@H]2O)o1" ?
result: 0.0313

# input for lookup
query: Which measured IC95 value corresponds to "Cc1ccncc1-c1ccc(C[C@H](C[C@H](O)CN2CCN(Cc3ccc(-c4ccc(Cl)cc4)s3)C[C@H]2C(=O)NCC(F)(F)F)C(=O)N[C@H]2c3ccccc3OC[C@H]2O)o1" ?
result: 0.0156
